src = patent US20240335442A1

target: human sodium channel Nav 1.8 (Homo sapiens (Human)); experiment: Automated whole-cell voltage-clamp (ScreenPatch 384P), Nav 1.8 sodium current, Protocol 1; type: cell-based; conditions: Protocol 1 (holding voltage -90 mV, 0.1 Hz); CHO cells expressing human Nav 1.8; room temperature; read-out: Nav1.8 IC50
Sequence (Q9Y5Y9 whole entry): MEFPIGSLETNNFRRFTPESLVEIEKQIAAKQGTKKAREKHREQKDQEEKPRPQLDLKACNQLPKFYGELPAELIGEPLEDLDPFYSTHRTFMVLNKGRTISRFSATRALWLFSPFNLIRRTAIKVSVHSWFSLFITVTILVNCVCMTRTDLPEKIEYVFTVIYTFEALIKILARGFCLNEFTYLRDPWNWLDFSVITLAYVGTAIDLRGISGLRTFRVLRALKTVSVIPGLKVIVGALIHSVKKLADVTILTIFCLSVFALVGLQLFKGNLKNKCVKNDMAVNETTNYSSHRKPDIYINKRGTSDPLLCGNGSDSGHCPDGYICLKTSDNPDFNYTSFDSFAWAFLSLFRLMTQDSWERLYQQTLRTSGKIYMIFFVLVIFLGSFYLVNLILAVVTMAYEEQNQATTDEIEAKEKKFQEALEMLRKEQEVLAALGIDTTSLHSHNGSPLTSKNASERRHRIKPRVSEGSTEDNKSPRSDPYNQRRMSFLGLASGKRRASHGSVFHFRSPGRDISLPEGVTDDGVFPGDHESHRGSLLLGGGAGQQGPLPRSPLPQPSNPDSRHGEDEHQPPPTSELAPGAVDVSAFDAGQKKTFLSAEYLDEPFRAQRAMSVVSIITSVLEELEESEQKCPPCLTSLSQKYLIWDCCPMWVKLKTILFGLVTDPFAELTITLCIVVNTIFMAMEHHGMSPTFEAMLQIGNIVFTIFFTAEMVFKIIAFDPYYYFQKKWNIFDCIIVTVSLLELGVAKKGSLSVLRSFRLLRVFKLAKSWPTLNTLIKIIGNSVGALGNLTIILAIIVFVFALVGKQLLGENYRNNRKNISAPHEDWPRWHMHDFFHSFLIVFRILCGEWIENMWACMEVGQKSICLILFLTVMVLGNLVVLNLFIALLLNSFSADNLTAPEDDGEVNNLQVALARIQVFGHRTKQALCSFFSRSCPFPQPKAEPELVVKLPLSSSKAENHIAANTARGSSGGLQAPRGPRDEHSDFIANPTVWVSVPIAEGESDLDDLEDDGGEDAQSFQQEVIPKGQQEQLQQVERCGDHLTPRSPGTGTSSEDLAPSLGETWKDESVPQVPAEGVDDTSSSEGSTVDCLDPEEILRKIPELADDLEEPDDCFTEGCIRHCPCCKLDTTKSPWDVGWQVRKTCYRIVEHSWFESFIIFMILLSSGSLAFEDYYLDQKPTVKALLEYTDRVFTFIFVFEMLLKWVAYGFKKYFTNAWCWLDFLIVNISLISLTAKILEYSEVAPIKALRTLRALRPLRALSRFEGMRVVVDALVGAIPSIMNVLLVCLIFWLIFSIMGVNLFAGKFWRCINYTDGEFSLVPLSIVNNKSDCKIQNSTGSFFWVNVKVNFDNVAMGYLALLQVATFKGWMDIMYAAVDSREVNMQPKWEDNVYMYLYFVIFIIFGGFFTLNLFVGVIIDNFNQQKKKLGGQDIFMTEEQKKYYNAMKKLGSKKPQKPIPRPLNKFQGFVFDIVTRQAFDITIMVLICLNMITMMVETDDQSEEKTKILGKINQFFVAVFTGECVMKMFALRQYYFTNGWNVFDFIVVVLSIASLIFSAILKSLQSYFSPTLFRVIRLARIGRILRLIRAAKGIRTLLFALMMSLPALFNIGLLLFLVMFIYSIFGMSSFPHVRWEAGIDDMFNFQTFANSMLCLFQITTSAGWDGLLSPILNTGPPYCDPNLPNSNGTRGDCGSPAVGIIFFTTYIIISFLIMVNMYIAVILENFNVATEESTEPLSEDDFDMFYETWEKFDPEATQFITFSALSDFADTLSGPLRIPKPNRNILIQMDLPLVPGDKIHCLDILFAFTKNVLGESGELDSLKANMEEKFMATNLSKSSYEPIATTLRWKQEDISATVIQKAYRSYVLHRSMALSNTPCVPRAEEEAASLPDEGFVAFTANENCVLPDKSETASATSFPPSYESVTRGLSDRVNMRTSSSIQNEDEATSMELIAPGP
pIC50: −log10 of the molar value.
RESULT TYPE: pIC50

>>> print(df.to_string())
                           substance_smiles  qual  observed_result
0  CCOc1ccc(-c2cncc(C(=O)N/N=C/c3cccc(OC)n3)n2)cc1     =             5.49
1  CCOc1ccc(-c2cncc(C(=O)N/N=C/c3ccc(OC)c(OC)c3)n2)cc1     =             5.62
2  CCOc1ccc(-c2cncc(C(=O)N/N=C/c3cc(OC)ccn3)n2)cc1     =             5.01
3  CCOc1ccc(-c2cncc(C(=O)N/N=C/c3cc(OC)cc(OCCN(C)C)c3)n2)cc1     =             5.22
4  CCOc1ccc(-c2cncc(C(=O)N/N=C/c3ccncc3)n2)cc1     =             5.09
5  CCOc1ccc(-c2cncc(C(=O)N/N=C/c3cc(OC)cc4ncoc34)n2)cc1     =             5.25
6  CCOc1ccc(-c2cncc(C(=O)N/N=C/c3ccccn3)n2)cc1     <             5.00
7  CCOc1ccc(-c2cncc(C(=O)N/N=C/c3cncc(OC)c3)n2)cc1     <             5.00
8  CCOc1ccc(-c2cncc(C(=O)N/N=C(\C)c3cc(OC)cc(OC)c3)n2)cc1     =             5.04
9  CCOc1ccc(-c2cncc(C(=O)N/N=C/c3ccc(OC)cc3)n2)cc1     =             5.72
